# Tested on: CCRF-CEM leukemia
# experimentalProtocol: NCI tumour cell line growth inhibition, 48 h
The entries below are paired with their reported GI50.

molecule	GI50
O=C(Nc1ccccc1)Nc1ccc(Cl)c(Cl)c1	4.87 µM
Fc1ccc(C2C3CCOc4c(ccc5ccccc45)C3=NN2c2ccccc2)cc1 (stereo not given)	16.6 µM
Cc1cc2c(cc1Cl)N1C(=O)NS(=O)(=O)N=C1NS2(=O)=O	> 100 µM
Cc1[nH]n(-c2cccc(Cl)c2)c(=O)c1/C=C1\C=c2ccccc2=CC1=O	97.5 µM
COc1ccc2c(c1)N(CCO)C1=C(C(=O)OC1)C2c1ccc(OC)c(OC)c1 (stereo not given)	3.99 µM
Cc1cc(C#Cc2ccccc2)ccc1-n1c(/C=C/c2cc(O)ccc2O)nc2ccccc2c1=O	1.54 µM
CCCc1n(Cc2ccc3ccccc3n2)cc[n+]1Cc1ccc2ccccc2n1	2.72 µM
CCOC(=O)c1cc(-c2ccccc2)[nH]c1N/N=C/c1c(Cl)cccc1Cl	2.3 µM
CC1COCCN1CC#CCOC(=O)c1cc2ccccc2oc1=O (stereo not given)	> 100 µM
CCc1ccc([O-])c(C=NCCCN(C)CCCN=Cc2cc(C)ccc2[O-])c1.[Co+3].[N-]=[N+]=[N-]	> 150 µg/mL

---

# Tested on: M14 melanoma
# experimentalProtocol: NCI tumour cell line growth inhibition, 48 h
The entries below are paired with their reported TGI.
assayReadout: TGI

compound	assayReadout	readoutValue
CC1(C)CC(N2CCN(C3CC(C)(C)NC(C)(C)C3)CC2)CC(C)(C)N1	TGI	> 100 µM
COc1cc(Cn2c(SCC(=O)Nc3ccc(Cl)cc3)nc3ccccc3c2=O)cc(OC)c1OC	TGI	86.4 µM
COC(=O)C1=C(\O)C[C@@]2(C)CC[C@@H](C(=O)OC)C2C/C=C\1C(=O)OC (stereo not given in full)	TGI	> 100 µM
Cc1ccc(S(=O)(=O)CC2(Br)CCc3ccccc3C2=O)cc1 (stereo not given)	TGI	> 100 µM
CC(=O)N(CCCCNC(=O)C(F)(F)F)CCCNC(=O)C(F)(F)F	TGI	> 100 µM

---

# Test system: U251 CNS
# experimentalProtocol: NCI tumour cell line growth inhibition, 48 h
assayReadout: TGI

molecule	targetOfAssay	readoutValue
Nc1nc(OCC2CCCCC2)c2[nH]cnc2n1	U251 CNS	> 73.7 µM
COC(=O)C(/C(=N/N)C(=O)Nc1cccc(O)c1)c1nc2ccccc2[nH]c1=O (stereo not drawn)	U251 CNS	> 100 µM
N#Cc1cn(-c2c3ccccc3nc3ccccc23)c(=O)[nH]c1=O	U251 CNS	71 µM
CCOC(=O)C(NC(=O)c1cccc(Cl)c1)(N1CCN(c2cc3c(cc2F)c(=O)c(C(=O)O)cn3C2CC2)CC1)C(F)(F)F (stereo not drawn)	U251 CNS	18.3 µM
FC(F)(F)c1ccc(NCc2nc3ccccc3[nH]2)cc1	U251 CNS	> 100 µM
COc1cccc(/C=C\c2ccnc3ccccc23)c1	U251 CNS	> 10 µM
O=c1[nH]c(SCc2ccccc2[N+](=O)[O-])nc2nc[nH]c12	U251 CNS	> 100 µM
N=c1oc2ccccc2cc1C(=O)Nc1nccs1	U251 CNS	> 100 µM

---

The entries below are paired with their reported TGI.
# Test system: UO-31 renal
# experimentalProtocol: NCI tumour cell line growth inhibition, 48 h
assayReadout: TGI

molecule	targetOfAssay	readoutValue
Nc1nnc2oc3ccc4ccccc4c3cc1-2	UO-31 renal	> 100 µM
COC(=O)/C=C(\C)CC/C=C(\C)CCC(O)C(C)(C)O (stereo not given)	UO-31 renal	> 100 µM
Oc1ccc(-c2nc3cc(F)ccc3s2)cc1	UO-31 renal	49.9 µM
COc1cc(-c2nn(-c3cccc(NC(=O)CCN4CCN(C)CC4)c3)cc2-c2ccncc2)ccc1Cl	UO-31 renal	3.91 µM
COc1cc(NC(C)CCCN2C(=O)c3ccccc3C2=O)c2ncccc2c1OC (stereo not given)	UO-31 renal	> 100 µM
C=C(CO)[C@H]1Oc2ccc(C(C)=O)cc2[C@@H]1O	UO-31 renal	> 100 µM
O=C1N(CN2CCOCC2)CN(CN2CCOCC2)C(=O)N1Cc1ccc(CN2C(=O)N(CN3CCOCC3)CN(CN3CCOCC3)C2=O)cc1	UO-31 renal	> 100 µM
NC(=O)c1ncn(Cc2ccccc2)c1CNC(N)=S	UO-31 renal	> 100 µM
O=C1CSC(c2ccccc2O)N1c1nc2cc3sc(N4C(=O)CSC4c4ccccc4O)nc3cc2s1 (stereo not given)	UO-31 renal	> 100 µM
O=C1OC2(OC2c2ccc(Cl)cc2)c2ccccc21 (stereo not given)	UO-31 renal	> 100 µM
